Test system: Pseudomonas aeruginosa
assay_procedure: Antimicrobial activity against Pseudomonas aeruginosa PTCC 1074 after 24 hr by Alamar blue assay
Format: functional
condition_description: PTCC 1074, 24 h
assay_endpoint: MIC (µg/mL)

>  <compound>
CSc1ncc(C2NC(=O)NC(C)=C2C(=O)Nc2cccnc2)n1Nc1ccccc1 (stereo not given)

>  <u>
µg/mL

>  <endpoint_value>
512

$$$$
>  <compound>
CC1=C(C(=O)Nc2ccc(Cl)cc2)C(c2cccs2)NC(=O)N1 (stereo not given)

>  <u>
µg/mL

>  <endpoint_value>
512

$$$$

###

Test system: Aspergillus niger
assay_procedure: Antimicrobial activity against Aspergillus niger 5021 after 24 hr by Alamar blue assay
Assay type: functional
condition_description: Aspergillus niger, 5021, 24 h
assay_endpoint: MIC (mg/L)

A = CCOC(=O)C1=C(C)NC(=O)NC1c1cnc(SC)n1Nc1ccccc1 (centres undefined)
B = CSc1ncc(C2NC(=O)NC(C)=C2C(=O)Nc2ccc(Cl)cc2)n1Nc1ccccc1 (centres undefined)
Req: So which one has the bigger MIC here, A or B ? State your choice using its label.
Resp: A
(A: 128 mg/L, B: 64 mg/L)
